# Tested system: T1, BKV serotype I infectious virus (VP1) (BK virus serotype I, UniProt P03088 1-362)
# T1 sequence (looked up): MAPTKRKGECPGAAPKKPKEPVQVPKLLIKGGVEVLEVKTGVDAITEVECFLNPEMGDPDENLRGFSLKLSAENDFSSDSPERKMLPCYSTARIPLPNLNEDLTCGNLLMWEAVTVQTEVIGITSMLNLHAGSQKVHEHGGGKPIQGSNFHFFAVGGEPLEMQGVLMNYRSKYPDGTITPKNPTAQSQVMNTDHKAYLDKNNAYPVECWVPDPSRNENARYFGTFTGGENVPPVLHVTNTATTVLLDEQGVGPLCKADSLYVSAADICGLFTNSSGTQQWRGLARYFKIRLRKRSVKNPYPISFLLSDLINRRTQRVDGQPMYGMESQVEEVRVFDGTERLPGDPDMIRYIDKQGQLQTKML
# Method notes: cell-based or functional assay
Entries and their neutralization EC90 values follow.
Measured attribute: neutralization EC90 (µg/mL)

P8D11C (antibody, V domains shown) VH: QVQLVESGGTLVQPGGSLRLSCAASGFTFQNYWMTWVRQAPGKGLEWVANIKKDGSEKYYVDSVRGRFTISRDNAKNSLFLQMNSLRPEDTAVYFCATVRSGRYFALDDWGQGTLVTVSS VL: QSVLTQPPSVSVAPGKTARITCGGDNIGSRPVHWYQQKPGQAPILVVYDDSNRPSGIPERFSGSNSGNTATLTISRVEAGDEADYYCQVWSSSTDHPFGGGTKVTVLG    0.34
NEG447A (antibody, human IgG1, lambda, V domains shown) VH: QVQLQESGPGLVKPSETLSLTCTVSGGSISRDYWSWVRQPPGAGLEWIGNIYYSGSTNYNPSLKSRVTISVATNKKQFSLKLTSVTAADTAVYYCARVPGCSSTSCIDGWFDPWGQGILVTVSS VL: QSVLTQPPSVSAAPGQKVTISCSGSSSNIGNTYVSWYQQLPGTAPKLLIYDNNKRPSGIPDRFSGSKSGTSATLGITGLQTGDEADYYCGTWDSSLSAWVFGGGTRLTVLG    0.094
NEG447 (antibody, human IgG1, lambda, V domains shown) VH: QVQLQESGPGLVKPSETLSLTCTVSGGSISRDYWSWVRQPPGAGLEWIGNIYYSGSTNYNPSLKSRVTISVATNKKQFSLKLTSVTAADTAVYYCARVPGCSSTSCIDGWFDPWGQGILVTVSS VL: QSVLTQPPSLSAAPGQKVTISCSGSSSNIGNTYVSWYQQLPGTAPKLLIYDNNKRPSGIPDRFSGSKSGTSATLGITGLQTGDEAVYYCGTWDSSLSAWVFGGGTRLTVLG    0.27
